tested on: HEK-293 cells; test: Cytotoxicity, MTT-based microassay; assay type: cell-based, human; conditions: 72 h, read-out: Active Concentration (inhibitory concentration 50, IC50)
pIC50: −log10 of the molar value. No end group written: not given here.
QUANTITY KIND: pIC50

(Q) Consider the substance shown here: RQYMRQIEQALRYGYRISRR-NH2 [Guavanin 2] What is its recorded pIC50?
(A) < 3.70

###

tested on: human erythrocytes; assay: Hemolytic assay; settings: 1 h at 37° C., 100% of hemolysis was not observed
No end group written: not given here.
Measured Hemolysis accompanies every entry in the list below.

Field: example entries. Status: answers known.
{"columns": ["SUBSTANCE", "TARGET UNDER TEST", "Hemolysis"],
 "data": [
  ["RQYMRQIEQALRYGYRISRR-NH2 [Guavanin 2]", "human erythrocytes", ">200 µg/mL"],
  ["RKYMRQYEEAIRDGNRSIRR-NH2 [Guavanin 3]", "human erythrocytes", ">200 µg/mL"],
  ["RRGMKQYERISRDANRSYRR-NH2 [Guavanin 1]", "human erythrocytes", ">200 µg/mL"],
  ["RKLMEMYEEAFRYFNRISRR-NH2 [Guavanin 5]", "human erythrocytes", ">200 µg/mL"],
  ["RKLVECYERAERDANRSGRR-NH2 [Guavanin 15]", "human erythrocytes", ">200 µg/mL"]
]}

(Q) Query: Hemolysis; subject: RSFMKCYEQASRYGNRILRR-NH2 [Guavanin 14]
(A) >200 µg/mL

(Q) Consider the substance RYLMEYAEQAKRDAKRAYRR-NH2 [Guavanin 10] and give its measured Hemolysis.
(A) >200 µg/mL
